# target-system: electric eel acetylcholinesterase (eeAChE) (Electrophorus electricus, UniProt O42275)
# Construct: purchased Sigma-Aldrich
# Sequence (O42275 24-633): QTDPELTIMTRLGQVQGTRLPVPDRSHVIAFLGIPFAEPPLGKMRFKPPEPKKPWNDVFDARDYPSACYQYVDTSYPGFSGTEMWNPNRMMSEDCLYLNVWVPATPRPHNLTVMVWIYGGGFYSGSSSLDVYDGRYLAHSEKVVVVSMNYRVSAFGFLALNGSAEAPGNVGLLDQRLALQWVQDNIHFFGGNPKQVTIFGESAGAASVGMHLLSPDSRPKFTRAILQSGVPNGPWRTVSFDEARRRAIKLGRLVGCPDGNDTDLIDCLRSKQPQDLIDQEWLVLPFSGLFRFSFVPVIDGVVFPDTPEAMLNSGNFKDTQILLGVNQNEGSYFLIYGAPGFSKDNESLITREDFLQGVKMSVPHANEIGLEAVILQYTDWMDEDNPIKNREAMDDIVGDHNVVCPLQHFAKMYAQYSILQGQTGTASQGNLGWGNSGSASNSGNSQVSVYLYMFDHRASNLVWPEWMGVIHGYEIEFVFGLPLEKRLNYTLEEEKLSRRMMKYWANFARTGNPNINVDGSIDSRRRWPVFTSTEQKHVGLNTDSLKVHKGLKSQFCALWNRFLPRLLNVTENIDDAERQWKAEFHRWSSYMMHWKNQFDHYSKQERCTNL
# experiment-description: Inhibition of electric eel acetylcholinesterase (modified Ellman method)
# Type: biochemical
# experimental-setup: Ellman method, pH 7.4, 25 °C; 3 as acetate salt
pIC50: −log10 of the molar value.
We begin with a simple list: items and their reported pIC50.

compound	operator-symbol	pIC50
Cc1nc2c3n1CCN=C3c1ccccc1C2=O	=	4.87
CC(=O)NC1=C2NCCN=C2c2ccccc2C1=O	<	3.40
CN(C)C(=O)Oc1cccc([N+](C)(C)C)c1 [Neostigmine methylsulfate, reference compound]	=	5.22
Cc1nc2c(o1)C(=O)c1ccccc1C2=O [Compound 7, 2-methylnaphtho[2,3-d]oxazole-4,9-dione]	=	3.73

---

# target-system: human recombinant acetylcholinesterase (hAChE) (Homo sapiens)
# Construct: purchased Sigma-Aldrich
# Sequence (P22303 32-614): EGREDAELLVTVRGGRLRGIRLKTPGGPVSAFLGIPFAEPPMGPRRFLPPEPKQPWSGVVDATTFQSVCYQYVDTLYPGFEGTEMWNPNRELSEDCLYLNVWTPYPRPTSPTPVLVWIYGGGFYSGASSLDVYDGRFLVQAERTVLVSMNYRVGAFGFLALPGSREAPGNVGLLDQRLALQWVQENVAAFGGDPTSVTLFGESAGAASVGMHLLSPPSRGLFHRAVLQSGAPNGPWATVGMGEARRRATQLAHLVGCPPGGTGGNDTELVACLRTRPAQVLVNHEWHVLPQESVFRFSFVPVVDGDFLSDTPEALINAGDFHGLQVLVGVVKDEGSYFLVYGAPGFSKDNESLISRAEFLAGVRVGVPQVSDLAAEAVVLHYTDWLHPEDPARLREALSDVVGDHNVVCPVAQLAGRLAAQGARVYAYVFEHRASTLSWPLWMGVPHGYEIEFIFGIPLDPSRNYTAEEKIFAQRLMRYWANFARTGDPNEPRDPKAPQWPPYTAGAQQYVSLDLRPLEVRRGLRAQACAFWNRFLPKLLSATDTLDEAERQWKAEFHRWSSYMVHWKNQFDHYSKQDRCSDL
# experiment-description: Inhibition of human recombinant acetylcholinesterase (modified Ellman method)
# Format: biochemical
# experimental-setup: Dixon plot, substrate 0.125, 0.25, 0.5 mM; 3 as acetate salt
Each entry below carries its reported Ki.
endpoint-name: Ki (µM)

compound	target-system	observed-result
Cc1nc2c3n1CCN=C3c1ccccc1C2=O	human recombinant acetylcholinesterase (hAChE) (Homo sapiens)	5.8
Cc1nc2c(o1)C(=O)c1ccccc1C2=O [Compound 7, 2-methylnaphtho[2,3-d]oxazole-4,9-dione]	human recombinant acetylcholinesterase (hAChE) (Homo sapiens)	50

---

# target-system: horse serum butyrylcholinesterase (BChE) (Equus caballus)
# Construct: human recombinant AChE (hAChE), and horse serum BChE; purchased Sigma-Aldrich; host or cells: horse serum
# Sequence (P81908 whole entry): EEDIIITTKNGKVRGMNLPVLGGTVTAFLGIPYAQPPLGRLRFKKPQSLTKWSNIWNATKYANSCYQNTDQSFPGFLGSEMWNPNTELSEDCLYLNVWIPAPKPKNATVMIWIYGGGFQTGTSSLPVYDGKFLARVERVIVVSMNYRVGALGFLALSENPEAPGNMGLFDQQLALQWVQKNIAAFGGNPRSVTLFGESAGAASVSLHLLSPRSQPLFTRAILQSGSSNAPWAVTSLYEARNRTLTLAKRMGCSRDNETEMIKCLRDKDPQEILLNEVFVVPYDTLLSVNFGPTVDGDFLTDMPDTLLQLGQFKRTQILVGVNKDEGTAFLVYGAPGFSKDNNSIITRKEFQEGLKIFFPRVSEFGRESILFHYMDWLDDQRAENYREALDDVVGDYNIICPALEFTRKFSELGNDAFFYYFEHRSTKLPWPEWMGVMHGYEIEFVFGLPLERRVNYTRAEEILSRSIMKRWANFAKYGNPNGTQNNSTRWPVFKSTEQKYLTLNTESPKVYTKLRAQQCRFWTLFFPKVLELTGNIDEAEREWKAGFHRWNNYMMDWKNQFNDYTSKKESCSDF
# experiment-description: Inhibition of horse serum butyrylcholinesterase (modified Ellman method)
# Format: biochemical
# experimental-setup: Dixon plot, substrate 0.125, 0.25, 0.5 mM

compound	result-units	Ki
Cc1nc2c(o1)C(=O)c1ccccc1C2=O [Compound 7, 2-methylnaphtho[2,3-d]oxazole-4,9-dione]	µM	50
